# Tested on: SF-295 CNS
# run-description: NCI tumour cell line growth inhibition, 48 h

compound	GI50
C=C(C)[C@@H]1CC[C@]2(C(=O)OC)CC[C@]3(C)[C@H](CC[C@@H]4[C@@]5(C)CC[C@H](N)C(C)(C)[C@@H]5CC[C@]43C)[C@@H]12	1700 nM
CCCCOc1ccc(NC(=O)c2sc3nc(C)ccc3c2N)cc1	2590 nM
C=C1CC[C@@H]2[C@]3(C)COC(c4cn[nH]c4-c4ccccc4)O[C@@H]3CC[C@@]2(C)[C@@H]1C/C=C1/C(=O)OCC1O (some centres undefined)	15400 nM
O=c1[nH]n(C(=S)N/N=C/c2ccccc2Cl)c(=O)c2ccccc12	2480 nM

---

# Test system: MCF7 breast
# run-description: NCI tumour cell line growth inhibition, 48 h
assay-endpoint: GI50

compound	result
COc1ccc2[nH]c(O)c(N=NC(=O)COc3ccc(NC(=O)Nc4ccccc4)cc3)c2c1	17.4 µM
CCCCOc1ccc(NC(=O)c2sc3nc(C)ccc3c2N)cc1	3.07 µM
N#CC1=C(c2cccs2)Nc2c(c(-c3ccccc3)nn2-c2ccccc2)C12C(=O)Nc1ccc(Br)cc12 (centres undefined)	13.6 µM
O=c1[nH]n(C(=S)N/N=C/c2ccccc2Cl)c(=O)c2ccccc12	2.4 µM

---

# System: MDA-MB-468 breast
# run-description: NCI tumour cell line growth inhibition, 48 h; in the data active means GI50 below about 0.43 µM; inactive means the rest
Outcome codes: active, inactive

compound	category-label
CCCCCCCN(CCCCCCC)C(=N)c1ccc(OC)c2ccccc12	inactive
C=C(C)[C@@H]1CC[C@]2(C(=O)OC)CC[C@]3(C)[C@H](CC[C@@H]4[C@@]5(C)CC[C@H](N)C(C)(C)[C@@H]5CC[C@]43C)[C@@H]12	inactive
c1ccc(OCC[P+](c2ccccc2)(c2ccccc2)c2ccccc2)cc1	active
CCN1C(=O)N(CC)C2C1NN=c1s/c(=C\c3ccc(Br)cc3)c(=O)n12 (centres undefined)	active

---

# Tested on: MDA-MB-468 breast
# run-description: NCI tumour cell line growth inhibition, 48 h
Property: log10 of TGI; scope: individual molecules
assay-endpoint: log10 of TGI (log10 of the value in µM)

molecule	log10 of TGI
Nc1nc(N)c2c(n1)NC(c1ccc(Cl)cc1)C1CCc3ccccc3C1=N2 (configuration not stated)	1.16
O=C(Nc1c(Cl)cccc1Cl)Oc1cccc2cccnc12	1.14
Cn1cc(-c2nc(-c3c[nH]c4ccccc34)cs2)c2cccnc21	-0.08
COc1cccc(/C=C/C(=O)c2cc3c(N)c(C(=O)Nc4ccccc4)sc3nc2C)c1	0.26
O=C(/C=C/c1cc2ccccc2[nH]c1=O)c1ccc(O)cc1	0.72
N#CC1=C(c2cccs2)Nc2c(c(-c3ccccc3)nn2-c2ccccc2)C12C(=O)Nc1ccc(Br)cc12 (configuration not stated)	1.43
C[C@H]1O[C@@H](O[C@H]2[C@@H](O)C[C@H](O[C@H]3[C@@H](O)C[C@H](O[C@H]4CC[C@]5(C)C6CC[C@]7(C)[C@@H](C8=CC(=O)OC8)CC[C@]7(O)C6CC[C@@H]5C4)O[C@@H]3C)O[C@@H]2C)C[C@H](O)[C@@H]1O (some centres not stated)	-0.69
O=[N+]([O-])c1ccc(NC(c2ccccc2)c2ccc3cccnc3c2O)cc1 (configuration not stated)	0.31
CCCCOc1ccc(NC(=O)c2sc3nc(C)ccc3c2N)cc1	0.52
C=C1C(=O)O[C@H]2[C@H]1CC/C(COC(=O)NCCc1ccc(Br)cc1)=C\CC[C@@]1(C)O[C@@H]21	0.39
COC1C[C@H](O[C@@H]2C[C@H](O[C@@H]3C[C@H](O[C@@H]4C(=O)c5c(cc6cc(O[C@H]7C[C@@H](O[C@H]8C[C@@H](O)[C@H](O)C(C)O8)[C@H](O)C(C)O7)c(C)c(O)c6c5O)C[C@H]4C(OC)C(=O)[C@@H](O)[C@@H](C)O)OC(C)[C@H]3O)OC(C)[C@@H]2O)OC(C)[C@@H]1O (some centres not stated)	-0.14
O=C1NC(=O)/C(=C/c2ccc3nccc(-c4ccncc4)c3c2)S1	0.07
COc1cc(/C=C/[N+](=O)[O-])cc(OC)c1	0.55
COc1cc(N2CCN(C(C)C)CC2)ccc1Nc1nc(Nc2ccc(F)cc2C(N)=O)c2cc[nH]c2n1	0.74
